- Test system: KM12 colon
Reply using exactly one outcome from yes (1) = active, no (0) = inactive

Past entries and their recorded results:
molecule	target.under.test	classification
CO[C@H]1CC(c2ccc[nH]2)=N[C@]12O[C@@H](C)C[C@@H]1CCCCCCCc3ccc([nH]3)[C@H]12	KM12 colon	no (0)
Cn1cnc([N+](=O)[O-])c1Sc1ncn[nH]1	KM12 colon	no (0)
CCn1c2ccccc2c2cc(C(O)c3cccc4ncccc34)ccc21 (stereo unspecified)	KM12 colon	yes (1)
COc1ccc(OC)c(Nc2nc(-c3c(C)nc4sccn34)cs2)c1	KM12 colon	no (0)
COc1ccc(Nc2c3ccccc3nc3[nH]c4ccccc4c23)cc1	KM12 colon	no (0)

Turning now to a further molecule:
Query: recorded result category for "CC1(C)OC(=O)C=C([O-])O1.CC1(C)OC(=O)C=C([O-])O1.CC[O-].CC[O-].[Ti+4]" in this test
no (0)

----------
Notes on GI50 obtained with SK-MEL-28 melanoma.

Example cases with answers are listed next.
substance.smiles	measurement.type	observed.value
COc1ccc(Nc2c3ccccc3nc3[nH]c4ccccc4c23)cc1	GI50	18.5 µM
COc1cc(/C=C/C(=O)c2cccnc2Nc2ccc(F)cc2)cc(OC)c1OC	GI50	3.22 µM
ClCc1ccc(Cn2cnc3c(Cl)nc(Cl)nc32)cc1	GI50	2.69 µM
Cc1c(Sc2ccccc2)[n+](=O)c2cc(Cl)c(Cl)cc2n1[O-]	GI50	> 100 µM
O=C1NCCS(=O)(=O)/C1=C\C=C\c1cccc(C(F)(F)F)c1	GI50	2.92 µM

Lab request: please report GI50 under test system SK-MEL-28 melanoma for "CCN(CC)CCOc1ccc(C(=O)/C=C\c2ccc(Cl)cc2Cl)cc1"
2.55 µM

Lab request: please report GI50 under test system SK-MEL-28 melanoma for "Cn1c(=O)c(Oc2ccc(F)cc2F)cc2cnc(NCCS(C)(=O)=O)nc21"
> 25 µM

Lab request: please report GI50 under test system SK-MEL-28 melanoma for "COc1ccc(-c2nn(-c3cccc(NC(=O)c4ccc(N5CCOCC5)c(C(F)(F)F)c4)c3)cc2-c2ccncc2)cc1Cl"
9.97 µM

----------
- Test system: 786-0 renal
- experiment.summary: NCI tumour cell line growth inhibition, 48 h
measurement.type: TGI (µM)
Kindly provide the numeric value in µM only, without the unit symbol.

molecule	measurement.type	observed.value
COc1ccc2c(c1)CCC(OS(=O)(=O)CC13CCC(CC1=O)C3(C)C)C2=O (configuration not stated)	TGI	40.4
N#Cc1cc(S(=O)(=O)Nc2nc3ccccc3s2)c(SCc2ccccc2)cc1Cl	TGI	39.9

Lab request: please report TGI under test system 786-0 renal for "Cc1c(Sc2ccccc2)[n+](=O)c2cc(Cl)c(Cl)cc2n1[O-]"
43.4

----------
Notes on GI50 obtained with RXF 393 renal.

Example cases with answers are listed next.
molecule	GI50
COc1ccc(Nc2c3ccccc3nc3[nH]c4ccccc4c23)cc1	> 50 µM
C/C=C(\C)C(=O)N[C@H]1C(O)C[C@]2(C)C3CC[C@@]4(C)C(CC[C@@H]4C(C)N(C)C)C3CCC2C1O (stereo partly specified)	7.53 µM
C=C1c2c(Cl)ccc(O)c2C(O)=C2C(=O)[C@]3(O)C(O)=C(C(N)=O)C(=O)[C@@H](N(C)C)[C@@H]3[C@@H](O)[C@H]12	0.534 µM
Oc1ccc(Cl)cc1CNc1nc2ccccc2[nH]1	10.3 µM
ClCC[N+]12CC[N+](CCCl)(CC1)C2 (tested in a mixture with another compound)	85.4 µM

Now turn to the next molecule.
Lab request: please report GI50 under test system RXF 393 renal for "Cc1c(Sc2ccccc2)[n+](=O)c2cc(Cl)c(Cl)cc2n1[O-]"
23.2 µM

----------
# key: entry, value: TGI
- Test system: SN12C renal
- experiment.summary: NCI tumour cell line growth inhibition, 48 h

compound	observed.value
CC1=NN(C(=O)CC(=O)Nc2cccc(Cl)c2)C(=O)C1N=Nc1ccc(C(=O)O)cc1 (stereo unspecified)	> 100 µM

Now turn to the next compound.
Lab request: please report TGI under test system SN12C renal for "C/C(=N\Nc1nc2ccccc2s1)c1cc(C)ncn1"
15.1 µM

----------
# key: entry, value: TGI
- Test system: KM12 colon
- experiment.summary: NCI tumour cell line growth inhibition, 48 h

Example cases with answers are listed next.
molecule	TGI
Cc1c(Sc2ccccc2)[n+](=O)c2cc(Cl)c(Cl)cc2n1[O-]	> 100 µM
COCCOC(=O)C(C)=[N+]=[N-]	> 100 µM
CCN(CC)CCO/N=C1/C=C2CCC3C(CC[C@@]4(C)C3CC[C@]4(C)O)[C@@]2(C)CC1 (stereo not given in full)	18.9 µM
COC(=O)[C@@H](C)C[C@H](Cc1ccccc1)NC(=O)c1csc([C@@H](C[C@H](C(C)C)N(C)C(=O)[C@H](C)NC(=O)[C@H]2CCCCN2C)OC(C)=O)n1	> 25 µM

Fill blank: measured TGI of the molecule "COc1ccc(Nc2c3ccccc3nc3[nH]c4ccccc4c23)cc1" is ____.
> 50 µM

Fill blank: measured TGI of the molecule "C=CS(=O)(=O)CCN1CC1" is ____.
> 10 µM

Fill blank: measured TGI of the molecule COc1ccc(N2C(=O)CC(c3c[nH]c4ncccc34)C2=O)cc1 (stereo not given) is ____.
> 100 µM

Fill blank: measured TGI of the molecule "CC(C)CCN[C@@H]1CCc2cc(O)c(N3CC(=O)NS3(=O)=O)c(F)c2C1" is ____.
> 100 µM

Fill blank: measured TGI of the molecule "C/C=C/[C@H](O[Si](C)(C)C(C)(C)C)[C@@H](O)/C=C/C(=O)OCC" is ____.
32.3 µM

Fill blank: measured TGI of the molecule "CC1(C)[C@H]2Cc3cc(-c4cc5c(cn4)[C@@H]4C[C@H]([C@@H]5[C@@H]5c6cc(-c7cc8c(cn7)[C@@H]7C[C@H](C8)C7(C)C)ncc6[C@@H]6C[C@H]5C6(C)C)C4(C)C)ncc3[C@@H]1C2" is ____.
> 100 µM

Fill blank: measured TGI of the molecule "CCOC(=O)C1=C(Nc2ccc(Cl)c(Cl)c2)OC/C1=N\NS(=O)(=O)c1ccc(C)cc1" is ____.
> 100 µM

Fill blank: measured TGI of the molecule "CCOC(=O)c1c(C)c(C)n2c1NC(=O)C2" is ____.
> 100 µM

----------
- Test system: MOLT-4 leukemia
- experiment.summary: NCI tumour cell line growth inhibition, 48 h
# key: entry, value: TGI

Example cases with answers are listed next.
molecule	target.under.test	TGI
C[C@H]1C(=O)CC[C@]2(C)CCC(C(C)(C)O)CC12O (stereo partly specified)	MOLT-4 leukemia	> 100 µM
O=C(CSC1=NNC2(C(=O)N1)c1ccccc1-c1ccccc12)NC(=S)Nc1ccccc1	MOLT-4 leukemia	> 10 µM
O=c1oc2ccc([N+](=O)[O-])cc2c(Nc2ccc3c(c2)S(=O)(=O)c2ccccc2O3)c1[N+](=O)[O-]	MOLT-4 leukemia	> 100 µM
CN(C)Cc1cc(C(C)(C)C)cc(C2CCCCC2)c1O	MOLT-4 leukemia	22.6 µM
c1ccc2cc3c(cc2c1)nc1ccccn13	MOLT-4 leukemia	> 100 µM

Now turn to the next molecule.
Lab request: please report TGI under test system MOLT-4 leukemia for COC(=O)C1=C(C)N2CCOC2CC1c1ccccc1 (stereo unspecified)
> 100 µM

----------
- Test system: SNB-75 CNS
measurement.type: GI50

Example cases with answers are listed next.
compound	target.under.test	observed.value
CCN(CC)CCSCCCNc1c2ccc(Cl)cc2nc2ccc(OC)cc12	SNB-75 CNS	1.28 µM
c1ccc(CNc2nc(Nc3ccccc3)nc3ccccc23)cc1	SNB-75 CNS	1.93 µM
COc1cc2c3c(n(CCCN=[N+]=[N-])c(=O)c2cc1OC)-c1ccc(N(C)C)cc1C3=O	SNB-75 CNS	55.9 µM
Cn1cnc([N+](=O)[O-])c1Sc1ncn[nH]1	SNB-75 CNS	> 100 µM
C/C=C(\C)C(=O)N[C@H]1C(O)C[C@]2(C)C3CC[C@@]4(C)C(CC[C@@H]4C(C)N(C)C)C3CCC2C1O (stereo not given in full)	SNB-75 CNS	10.7 µM

Lab request: please report GI50 under test system SNB-75 CNS for "O=C(Nc1ccc(I)cc1F)c1cc(Cl)ccc1O"
0.308 µM

Lab request: please report GI50 under test system SNB-75 CNS for "ClCc1ccc(Cn2cnc3c(Cl)nc(Cl)nc32)cc1"
3.13 µM

Lab request: please report GI50 under test system SNB-75 CNS for "N#Cc1cc(S(=O)(=O)Nc2nc3ccccc3s2)c(SCc2ccccc2)cc1Cl"
26.2 µM

Lab request: please report GI50 under test system SNB-75 CNS for "O=C1NCCS(=O)(=O)/C1=C\C=C\c1cccc(C(F)(F)F)c1"
4.36 µM

Lab request: please report GI50 under test system SNB-75 CNS for C=CCCCc1ccc(C(O)CCCCCCCCCCCC)o1 (stereo not given)
15.5 µM

// data source = PubChem BioAssay (NCI)
